Test system: 186277-243-T-J2-PDC spheroids with HUVEC/MSC, viability
protocolDetails: Anticancer human tumor 186277-243-T-J2-PDC patient-derived colon adenocarcinoma cell line growth inhibition [CLK]
runConditions: second compound 3.16 µM; first compound 3.16 µM; hits give low values
experimentalReadout: viability, T/C (%)
Hi! Could you send only the number? It should be in %, unit omitted.

Qu. Endpoint output: viability, T/C of CC1COCCN1c1cc(C2(S(C)(=N)=O)CC2)nc(-c2ccnc3[nH]ccc23)n1 (stereo not drawn) + CNC(=O)c1ccc(Nc2nc(OC3CCCC3)c3c(-c4ccc5nc(C)oc5c4)c[nH]c3n2)c(OC)c1 . Value?
Ans. 12.2

Qu. Endpoint output: viability, T/C of C=C(F)C(=O)N1CCN(c2nc(OCC3CCCN3C)nc3c2CCN(c2cccc4cccc(Cl)c24)C3)CC1CC#N (stereo not drawn) + CN1CCN(c2cc(C(=O)Nc3cc4cc(-c5cnn(C)c5)ccc4cn3)ccn2)CC1 . Value?
Ans. 1.01

Qu. Endpoint output: viability, T/C of COc1ccc([C@@H](O)c2cc(-c3ncnc4cc(N5CCOCC5)ccc34)c(F)cc2Cl)nn1 + CNC(=O)c1ccc(Nc2nc(OC3CCCC3)c3c(-c4ccc5nc(C)oc5c4)c[nH]c3n2)c(OC)c1 . Value?
Ans. 16

Qu. Endpoint output: viability, T/C of Nc1ccccc1NC(=O)c1ccc(CNC(=O)OCc2cccnc2)cc1 + CNC(=O)c1ccc(Nc2nc(OC3CCCC3)c3c(-c4ccc5nc(C)oc5c4)c[nH]c3n2)c(OC)c1 . Value?
Ans. 9.98

Qu. Endpoint output: viability, T/C of O=c1[nH]cc(F)c(=O)[nH]1 + CN1CCN(c2cc(C(=O)Nc3cc4cc(-c5cnn(C)c5)ccc4cn3)ccn2)CC1 . Value?
Ans. 2.49

Qu. Endpoint output: viability, T/C of CCCS(=O)(=O)Nc1ccc(F)c(C(=O)c2c[nH]c3ncc(-c4ccc(Cl)cc4)cc23)c1F + CN1CCN(c2cc(C(=O)Nc3cc4cc(-c5cnn(C)c5)ccc4cn3)ccn2)CC1 . Value?
Ans. 2.61

Qu. Endpoint output: viability, T/C of COC1C=CCC(C)C(C)S(=O)(=O)NC(=O)c2ccc3c(c2)N(CC2CCC21)CC1(CCCc2cc(Cl)ccc21)CO3 (stereo not drawn) + CNC(=O)c1ccc(Nc2nc(OC3CCCC3)c3c(-c4ccc5nc(C)oc5c4)c[nH]c3n2)c(OC)c1 . Value?
Ans. 6.79

Qu. Endpoint output: viability, T/C of C=C(F)C(=O)N1CCN(c2nc(OCC3CCCN3C)nc3c2CCN(c2cccc4cccc(Cl)c24)C3)CC1CC#N (stereo not drawn) + CNC(=O)c1ccc(Nc2nc(OC3CCCC3)c3c(-c4ccc5nc(C)oc5c4)c[nH]c3n2)c(OC)c1 . Value?
Ans. 34.1

###

System: 186277-243-T-J2-PDC spheroids with HUVEC/MSC, viability
protocolDetails: Anticancer human tumor 186277-243-T-J2-PDC cell line growth inhibition [CLK];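 also: compound exposure lasted seven days before readout; 100% = DMSO vehicle control wells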
runConditions: second compound 0.1 µM; first compound 0.0316 µM; hits give low values
Please respond with Fulfilled when measured viability, T/C is strictly beneath 80%, and with Not fulfilled in all other cases.

Qu. # check: viability, T/C < 80% for CC1(C)CCC(CN2CCN(c3ccc(C(=O)NS(=O)(=O)c4ccc(NCC5CCOCC5)c([N+](=O)[O-])c4)c(Oc4cnc5[nH]ccc5c4)c3)CC2)=C(c2ccc(Cl)cc2)C1 + CN1CCN(c2cc(C(=O)Nc3cc4cc(-c5cnn(C)c5)ccc4cn3)ccn2)CC1
Ans. Not fulfilled

Qu. # check: viability, T/C < 80% for C=CC(=O)N1CCN(c2nc(=O)n(-c3c(C)ccnc3C(C)C)c3nc(-c4c(O)cccc4F)c(F)cc23)C(C)C1 (stereo not given) + CN1CCN(c2cc(C(=O)Nc3cc4cc(-c5cnn(C)c5)ccc4cn3)ccn2)CC1
Ans. Not fulfilled

Qu. # check: viability, T/C < 80% for CC1COCCN1c1cc(C2(S(C)(=N)=O)CC2)nc(-c2ccnc3[nH]ccc23)n1 (stereo not given) + CN1CCN(c2cc(C(=O)Nc3cc4cc(-c5cnn(C)c5)ccc4cn3)ccn2)CC1
Ans. Fulfilled

Qu. # check: viability, T/C < 80% for COc1c(OCCCN2CCOCC2)ccc2c3n(c(=NC(=O)c4cnc(N)nc4)nc12)CCN3 + CN1CCN(c2cc(C(=O)Nc3cc4cc(-c5cnn(C)c5)ccc4cn3)ccn2)CC1
Ans. Fulfilled

###

Test system: 186277-243-T-J2-PDC spheroids with HUVEC/MSC, viability
protocolDetails: Anticancer human tumor 186277-243-T-J2-PDC cell line growth inhibition [CLK]; active = viability on the fitted dose curve at most 10% of control; inactive = the rest;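 also: compound exposure lasted seven days before readout; 100% = DMSO vehicle control wells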
runConditions: second compound 1 µM; first compound 0.01 µM
API: response.call in active, inactive

Qu. What classification did Cn1ncnc1[C@H]1c2n[nH]c(=O)c3cc(F)cc(c23)N[C@@H]1c1ccc(F)cc1 + CN1CCN(c2cc(C(=O)Nc3cc4cc(-c5cnn(C)c5)ccc4cn3)ccn2)CC1 end up with in this test?
Ans. active

Qu. What classification did Cn1ncnc1[C@H]1c2n[nH]c(=O)c3cc(F)cc(c23)N[C@@H]1c1ccc(F)cc1 + CNC(=O)c1ccc(Nc2nc(OC3CCCC3)c3c(-c4ccc5nc(C)oc5c4)c[nH]c3n2)c(OC)c1 end up with in this test?
Ans. inactive

Qu. What classification did COc1c(OCCCN2CCOCC2)ccc2c3n(c(=NC(=O)c4cnc(N)nc4)nc12)CCN3 + CNC(=O)c1ccc(Nc2nc(OC3CCCC3)c3c(-c4ccc5nc(C)oc5c4)c[nH]c3n2)c(OC)c1 end up with in this test?
Ans. inactive

###

I'd appreciate it if you could supply viability, T/C values for the items below.
Test system: 186277-243-T-J2-PDC spheroids with HUVEC/MSC, viability
protocolDetails: Anticancer human tumor 186277-243-T-J2-PDC cell line growth inhibition [CLK];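 also: compound exposure lasted seven days before readout; 100% = DMSO vehicle control wells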
runConditions: second compound 10 µM; first compound 1 µM; hits give low values

Qu. Endpoint output: viability, T/C of C#Cc1c(F)ccc2cc(O)cc(-c3ncc4c(N5CC6CCC(C5)N6)nc(OCC56CCCN5CC(F)C6)nc4c3F)c12 (configuration not stated) + CNC(=O)c1ccc(Nc2nc(OC3CCCC3)c3c(-c4ccc5nc(C)oc5c4)c[nH]c3n2)c(OC)c1 . Value?
Ans. 5.74%

Qu. Endpoint output: viability, T/C of CC(=O)O[C@H]1C(=O)[C@@]2(C)[C@H]([C@H](OC(=O)c3ccccc3)[C@]3(O)C[C@H](OC(=O)[C@H](O)[C@@H](NC(=O)c4ccccc4)c4ccccc4)C(C)=C1C3(C)C)[C@]1(OC(C)=O)CO[C@@H]1C[C@@H]2O + CN1CCN(c2cc(C(=O)Nc3cc4cc(-c5cnn(C)c5)ccc4cn3)ccn2)CC1 . Value?
Ans. 0.96%

###

Tested on: 186277-243-T-J2-PDC spheroids with HUVEC/MSC, viability
protocolDetails: Anticancer human tumor 186277-243-T-J2-PDC cell line growth inhibition [CLK];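 also: compound exposure lasted seven days before readout; 100% = DMSO vehicle control wells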
runConditions: second compound 1 µM; first compound 0.0316 µM; hits give low values
Excerpt: A high-throughput screen of multi-cell type tumor spheroids was designed to identify active combinations of […] and targeted small molecules. Complex spheroids include a stromal component modeled by human endothelial cells (HUVEC) and fibroblasts modeled by human mesenchymal stem cells (MSCs). […] Compounds. […] If the clinical Cmax for an agent had not been determined, the highest concentration tested was 10 microM. […]
Please respond with class 1 when measured viability, T/C is strictly beneath 10%, and with class 0 in all other cases.

Qu. # check: viability, T/C < 10% for O=c1[nH]cc(F)c(=O)[nH]1 + CNC(=O)c1ccc(Nc2nc(OC3CCCC3)c3c(-c4ccc5nc(C)oc5c4)c[nH]c3n2)c(OC)c1
Ans. class 0

Qu. # check: viability, T/C < 10% for O=C(c1cc(Cc2n[nH]c(=O)c3ccccc23)ccc1F)N1CCN(C(=O)C2CC2)CC1 + CN1CCN(c2cc(C(=O)Nc3cc4cc(-c5cnn(C)c5)ccc4cn3)ccn2)CC1
Ans. class 1

Qu. # check: viability, T/C < 10% for COC1C=CCC(C)C(C)S(=O)(=O)NC(=O)c2ccc3c(c2)N(CC2CCC21)CC1(CCCc2cc(Cl)ccc21)CO3 (stereo not given) + CN1CCN(c2cc(C(=O)Nc3cc4cc(-c5cnn(C)c5)ccc4cn3)ccn2)CC1
Ans. class 1

Qu. # check: viability, T/C < 10% for CC1COCCN1c1cc(C2(S(C)(=N)=O)CC2)nc(-c2ccnc3[nH]ccc23)n1 (stereo not given) + CNC(=O)c1ccc(Nc2nc(OC3CCCC3)c3c(-c4ccc5nc(C)oc5c4)c[nH]c3n2)c(OC)c1
Ans. class 0

Qu. # check: viability, T/C < 10% for CC(=O)O[C@H]1C(=O)[C@@]2(C)[C@H]([C@H](OC(=O)c3ccccc3)[C@]3(O)C[C@H](OC(=O)[C@H](O)[C@@H](NC(=O)c4ccccc4)c4ccccc4)C(C)=C1C3(C)C)[C@]1(OC(C)=O)CO[C@@H]1C[C@@H]2O + CN1CCN(c2cc(C(=O)Nc3cc4cc(-c5cnn(C)c5)ccc4cn3)ccn2)CC1
Ans. class 1

Qu. # check: viability, T/C < 10% for CCN1CCN(Cc2ccc(Nc3ncc(F)c(-c4cc(F)c5nc(C)n(C(C)C)c5c4)n3)nc2)CC1 + CN1CCN(c2cc(C(=O)Nc3cc4cc(-c5cnn(C)c5)ccc4cn3)ccn2)CC1
Ans. class 1

Qu. # check: viability, T/C < 10% for O=C(c1cc(Cc2n[nH]c(=O)c3ccccc23)ccc1F)N1CCN(C(=O)C2CC2)CC1 + CNC(=O)c1ccc(Nc2nc(OC3CCCC3)c3c(-c4ccc5nc(C)oc5c4)c[nH]c3n2)c(OC)c1
Ans. class 0

Qu. # check: viability, T/C < 10% for CC1(C)CCC(CN2CCN(c3ccc(C(=O)NS(=O)(=O)c4ccc(NCC5CCOCC5)c([N+](=O)[O-])c4)c(Oc4cnc5[nH]ccc5c4)c3)CC2)=C(c2ccc(Cl)cc2)C1 + CNC(=O)c1ccc(Nc2nc(OC3CCCC3)c3c(-c4ccc5nc(C)oc5c4)c[nH]c3n2)c(OC)c1
Ans. class 0

Qu. # check: viability, T/C < 10% for C=CC(=O)N1CCN(c2nc(=O)n(-c3c(C)ccnc3C(C)C)c3nc(-c4c(O)cccc4F)c(F)cc23)C(C)C1 (stereo not given) + CN1CCN(c2cc(C(=O)Nc3cc4cc(-c5cnn(C)c5)ccc4cn3)ccn2)CC1
Ans. class 1

Qu. # check: viability, T/C < 10% for C#Cc1c(F)ccc2cc(O)cc(-c3ncc4c(N5CC6CCC(C5)N6)nc(OCC56CCCN5CC(F)C6)nc4c3F)c12 (stereo not given) + CN1CCN(c2cc(C(=O)Nc3cc4cc(-c5cnn(C)c5)ccc4cn3)ccn2)CC1
Ans. class 1

Qu. # check: viability, T/C < 10% for C=CC(=O)N1CCN(c2nc(=O)n(-c3c(C)ccnc3C(C)C)c3nc(-c4c(O)cccc4F)c(F)cc23)C(C)C1 (stereo not given) + CNC(=O)c1ccc(Nc2nc(OC3CCCC3)c3c(-c4ccc5nc(C)oc5c4)c[nH]c3n2)c(OC)c1
Ans. class 0

Qu. # check: viability, T/C < 10% for Nc1ccn(C2OC(CO)C(O)C2(F)F)c(=O)n1 (stereo not given) + CN1CCN(c2cc(C(=O)Nc3cc4cc(-c5cnn(C)c5)ccc4cn3)ccn2)CC1
Ans. class 1

Qu. # check: viability, T/C < 10% for Cn1ncnc1[C@H]1c2n[nH]c(=O)c3cc(F)cc(c23)N[C@@H]1c1ccc(F)cc1 + CN1CCN(c2cc(C(=O)Nc3cc4cc(-c5cnn(C)c5)ccc4cn3)ccn2)CC1
Ans. class 1

Qu. # check: viability, T/C < 10% for CCc1c2c(nc3ccc(O)cc13)-c1cc3c(c(=O)n1C2)COC(=O)[C@]3(O)CC + CNC(=O)c1ccc(Nc2nc(OC3CCCC3)c3c(-c4ccc5nc(C)oc5c4)c[nH]c3n2)c(OC)c1
Ans. class 0

Qu. # check: viability, T/C < 10% for CCN1CCN(Cc2ccc(Nc3ncc(F)c(-c4cc(F)c5nc(C)n(C(C)C)c5c4)n3)nc2)CC1 + CNC(=O)c1ccc(Nc2nc(OC3CCCC3)c3c(-c4ccc5nc(C)oc5c4)c[nH]c3n2)c(OC)c1
Ans. class 0

Reference source: PubChem BioAssay AID2060625
